Target: T1, USP38, Q8NB14
T1 chain: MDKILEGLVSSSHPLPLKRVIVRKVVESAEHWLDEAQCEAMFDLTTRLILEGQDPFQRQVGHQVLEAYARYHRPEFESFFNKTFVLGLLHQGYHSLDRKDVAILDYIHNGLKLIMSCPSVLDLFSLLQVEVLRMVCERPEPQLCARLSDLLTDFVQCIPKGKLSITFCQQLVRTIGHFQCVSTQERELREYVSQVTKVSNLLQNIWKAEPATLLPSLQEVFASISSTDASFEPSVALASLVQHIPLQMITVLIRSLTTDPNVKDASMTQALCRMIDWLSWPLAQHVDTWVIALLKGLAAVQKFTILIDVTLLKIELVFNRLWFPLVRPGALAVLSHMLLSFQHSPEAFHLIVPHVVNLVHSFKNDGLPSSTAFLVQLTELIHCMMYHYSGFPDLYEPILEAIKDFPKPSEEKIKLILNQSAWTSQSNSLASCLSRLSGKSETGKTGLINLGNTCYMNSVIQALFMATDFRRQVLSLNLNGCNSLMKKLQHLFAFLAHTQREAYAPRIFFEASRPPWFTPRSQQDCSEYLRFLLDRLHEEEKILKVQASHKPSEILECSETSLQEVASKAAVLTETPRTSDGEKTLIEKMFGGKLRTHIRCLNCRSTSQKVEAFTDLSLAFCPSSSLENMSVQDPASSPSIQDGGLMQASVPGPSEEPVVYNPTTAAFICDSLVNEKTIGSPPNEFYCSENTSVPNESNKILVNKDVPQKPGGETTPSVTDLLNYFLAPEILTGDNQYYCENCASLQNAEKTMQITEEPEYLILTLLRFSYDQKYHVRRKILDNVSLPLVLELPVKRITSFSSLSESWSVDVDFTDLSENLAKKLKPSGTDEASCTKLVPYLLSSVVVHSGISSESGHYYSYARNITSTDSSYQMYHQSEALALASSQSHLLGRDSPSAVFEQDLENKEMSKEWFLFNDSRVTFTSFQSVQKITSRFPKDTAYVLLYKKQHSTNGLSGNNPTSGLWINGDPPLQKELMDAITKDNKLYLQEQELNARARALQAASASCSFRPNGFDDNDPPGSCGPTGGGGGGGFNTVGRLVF
Assay: median log2 fold change of GCK-ALFA target abundance (FLAG IP / Myc IP barcode read proportion) (log2 ratio); each designed protein is fused to an ALFA-tag nanobody in HEK293 cells to bring the named protein to FLAG-tagged glucokinase (GCK); Myc marks an untargeted standard; higher = target protein stabilised (more abundant)
Settings: target protein: 3xFLAG-MCP-GCK-ALFA reporter; HEK293 landing pad (RPLP)
Below, each entry is listed alongside its reported median log2 fold change.

>  <binder>
usp_38_diff_out_1_162_44 (protein) AVEETLAQLEEALERAERLIEEAERALEEGDLERARELLDEAADTLGRAAQLLREARRLSRELSPEERARVRERLRELNERLDELIDRLTELEREVFLRE

>  <median log2 fold change>
0.133

$$$$
>  <binder>
usp_38_diff_out_18_28_400 (protein) MQEEIQKIIEENEKKTNELIDKYTELGEKAFLAYHEDPSNEELLEKLDELADALGKAAKKVNEMRENKNDPEKVKEYSKEFEEYYKKAEALMKEIEKLLA

>  <median log2 fold change>
-1.05

$$$$
>  <binder>
usp_38_diff_out_20_123_446 (protein) MEEARERAERLLERARQLLENAKQILKFVKAGVLSKETIESNIKFIESQIEYLERERERLREEHPELEELLEEIDRVLEETREVLKEIKAAAAAREAAEA

>  <median log2 fold change>
0.247

$$$$
>  <binder>
usp_38_diff_out_17_130_224 (protein) SAEEVEALKEYLEAEKKNVESVKEDAKKDFERAKKNPVTLDRVEHALEGNIKYMEETIKEAEKLKKEYPEVKEAADKLIKAAKKAKEEFEKYLKEVKALK

>  <median log2 fold change>
0.401

$$$$
